target: T1, recombinant human GPC3 protein (human, UniProt P51654 25-563); test: BLI (Octet), antibody on Protein A probe
T1 construct: also called human GPC3 full-length protein; recombinant GPC3 protein
observed_property: pKd
Note: pKd values are expressed as the negative base-10 logarithm of concentration in M.

Some solved cases for reference:
[[record]]
binder = "46C3 (antibody, V domains shown, Chimeric human IgG1) VH: QVQLQQSGPELVKPGASVKISCKASGYTFTDYYINWVKQKPGQGLEWIGWIYPGSGNTKYNEKFKGKATLTVDTSSSTAYMQLSSLTSEDTAVYFCARGRWGQGTLVTVSA VL: DVVMTQTPLSLPVSLRDQASISCRSSQSLVHSNGNTYLHWYLQKPGQSPKLLIYKVSNRFSGVPDRFSGSGSGTDFTLKISRVEAEDLGVYFCSQSTHVPRTFGGGTKLELK"
observed_result = 7.61

[[record]]
binder = "41H1 (antibody, V domains shown, Chimeric human IgG1) VH: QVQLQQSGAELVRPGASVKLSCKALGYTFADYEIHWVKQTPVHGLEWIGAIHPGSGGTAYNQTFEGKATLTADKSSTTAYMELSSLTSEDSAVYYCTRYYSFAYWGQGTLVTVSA VL: DVVMTQTPLSLPVSLGDQASISCRSSQSLVHSNGNTYLHWYLQKPGQSPKLLIYKVSNRFSGVPDRFSGSGSGTDFTLRISRVEAEDLGVYFCSQSTRVPLTFGAGTKLELK"
observed_result = 7.60


Then there is this binder:
Give pKd for the following binder: 34H1 (antibody, V domains shown, Chimeric human IgG1) VH: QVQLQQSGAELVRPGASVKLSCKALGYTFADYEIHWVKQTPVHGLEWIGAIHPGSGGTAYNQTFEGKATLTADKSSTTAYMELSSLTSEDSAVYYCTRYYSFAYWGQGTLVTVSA VL: DVVMTQTPLSLPVSLGDQASISCRSSQSLVHSNGNTYLHWYLQKPGQSPKLLIYKVSNRFSGVPDRFSGSGSGTDFTLKISRVEAEDLGVYFCSQSIHVPLTFGAGTKLELK
7.89
